# target-entity: T1, GFP-9S library array, motif 4 ND (synthetic construct)
# T1 chain: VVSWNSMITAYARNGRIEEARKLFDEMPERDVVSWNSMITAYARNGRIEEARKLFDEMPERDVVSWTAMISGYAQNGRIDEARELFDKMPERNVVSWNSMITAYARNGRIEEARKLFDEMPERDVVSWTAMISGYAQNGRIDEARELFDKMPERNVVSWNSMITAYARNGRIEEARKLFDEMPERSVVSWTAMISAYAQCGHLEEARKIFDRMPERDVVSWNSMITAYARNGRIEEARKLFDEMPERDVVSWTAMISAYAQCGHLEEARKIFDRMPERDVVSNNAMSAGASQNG
# procedure-details: high-throughput RNA pulldown from lysate on Ni-NTA beads; HRP: 50 mM Tris pH 8, 150 mM NaCl, 1 mM beta-mercaptoethanol, 50 ug/ml BSA, 3 ug/ml yeast RNA, 0.5% heparin; ITC and FP: Tris pH 8, 200 mM KCl, 5% glycerol; MST: 50 mM Tris pH 8, 200 mM NaCl, 1 mM DTT, BSA, heparin, 0.05% Tween 20
# measurement-parameters: tags: N-terminal His-eGFP; label: 5' Cy5
# Kd per record follows
Give just the number in nM; leave the unit off.

- binder: "AUUAGACGUGA (ssRNA) [Cy5-rpoA-G]"
  Kd, nM: 276

// below: Kd requested for another binder
Exam item: Kindly indicate its recorded Kd. Item: AUUACACGUGA (ssRNA) [Cy5-rpoA]
Marked response: 19
